Where do these numbers come from? They come from paper PMC5152921.

Biological target: Bichir VDR (Polypterus senegalus, UniProt A0A088GJ14)
Sequence (A0A088GJ14 1-421): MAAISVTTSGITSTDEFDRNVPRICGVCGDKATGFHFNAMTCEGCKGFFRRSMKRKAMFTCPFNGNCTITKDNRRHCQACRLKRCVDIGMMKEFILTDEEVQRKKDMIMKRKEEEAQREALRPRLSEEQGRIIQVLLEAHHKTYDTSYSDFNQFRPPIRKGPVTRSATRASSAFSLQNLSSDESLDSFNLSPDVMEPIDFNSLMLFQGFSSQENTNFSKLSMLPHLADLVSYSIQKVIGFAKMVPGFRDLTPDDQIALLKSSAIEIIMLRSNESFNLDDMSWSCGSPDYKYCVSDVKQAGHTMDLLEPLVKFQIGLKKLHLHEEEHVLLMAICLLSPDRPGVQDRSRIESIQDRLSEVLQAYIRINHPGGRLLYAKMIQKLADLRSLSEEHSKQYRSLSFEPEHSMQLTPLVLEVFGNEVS
Sequence (P19793 1-462 partner): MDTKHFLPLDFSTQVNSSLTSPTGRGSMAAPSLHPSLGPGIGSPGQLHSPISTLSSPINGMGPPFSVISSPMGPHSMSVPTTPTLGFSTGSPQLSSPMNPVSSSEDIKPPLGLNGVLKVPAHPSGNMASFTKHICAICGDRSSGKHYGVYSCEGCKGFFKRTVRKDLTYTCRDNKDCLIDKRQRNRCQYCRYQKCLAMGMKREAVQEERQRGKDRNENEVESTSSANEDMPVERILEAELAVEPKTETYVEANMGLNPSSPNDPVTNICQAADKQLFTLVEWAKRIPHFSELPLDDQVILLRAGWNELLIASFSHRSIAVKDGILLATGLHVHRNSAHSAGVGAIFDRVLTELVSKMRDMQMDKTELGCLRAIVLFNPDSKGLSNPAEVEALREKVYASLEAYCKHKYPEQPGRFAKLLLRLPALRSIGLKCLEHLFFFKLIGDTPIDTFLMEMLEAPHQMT
Assay: Competitive ligand binding assay ([3H]-1,25D3 displacement)
Settings: lysate with VDR and human RXRWT; 4 nM [3H]-1,25D3; 18 hours at 4°C; Cheng-Prusoff; mean ± SEM
experimental_readout: Ki (µM)

[[record]]
molecule = "C[C@H](CCC(=O)O)[C@H]1CC[C@H]2[C@@H]3CC[C@@H]4C[C@H](O)CC[C@]4(C)[C@H]3CC[C@]12C [LCA, 5β-cholanic acid-3α-ol]"
reported = 4.2


----------
Target: UniProtKB B2CCA0
Sequence (B2CCA0 entry or part of it, one chain of several): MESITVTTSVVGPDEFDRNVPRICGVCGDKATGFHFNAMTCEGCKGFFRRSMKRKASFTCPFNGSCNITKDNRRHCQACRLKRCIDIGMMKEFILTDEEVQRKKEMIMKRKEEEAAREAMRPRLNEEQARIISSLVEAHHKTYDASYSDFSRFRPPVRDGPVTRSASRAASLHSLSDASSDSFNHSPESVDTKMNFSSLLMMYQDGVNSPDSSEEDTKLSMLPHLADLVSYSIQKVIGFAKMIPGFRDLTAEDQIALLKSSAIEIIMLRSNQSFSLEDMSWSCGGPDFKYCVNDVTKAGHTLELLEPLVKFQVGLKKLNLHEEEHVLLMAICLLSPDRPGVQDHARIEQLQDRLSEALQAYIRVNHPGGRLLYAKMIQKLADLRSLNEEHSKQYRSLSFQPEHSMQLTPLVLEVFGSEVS
Experiment: Competitive ligand binding assay ([3H]-1,25D3 displacement)
Settings: lysate with VDR and human RXRWT; 4 nM [3H]-1,25D3; 18 hours at 4°C; Cheng-Prusoff; mean ± SEM
experimental_readout: Ki (µM)

[[record]]
item_smiles = "C[C@H](CCC(=O)O)[C@H]1CC[C@H]2[C@@H]3CC[C@@H]4C[C@H](O)CC[C@]4(C)[C@H]3CC[C@]12C"
endpoint_unit = "µM"
reported = 6.5


----------
Biological target: Lamprey VDR (Petromyzon marinus, UniProt Q7ZZY9)
Sequence (Q7ZZY9 1-406, one chain of several): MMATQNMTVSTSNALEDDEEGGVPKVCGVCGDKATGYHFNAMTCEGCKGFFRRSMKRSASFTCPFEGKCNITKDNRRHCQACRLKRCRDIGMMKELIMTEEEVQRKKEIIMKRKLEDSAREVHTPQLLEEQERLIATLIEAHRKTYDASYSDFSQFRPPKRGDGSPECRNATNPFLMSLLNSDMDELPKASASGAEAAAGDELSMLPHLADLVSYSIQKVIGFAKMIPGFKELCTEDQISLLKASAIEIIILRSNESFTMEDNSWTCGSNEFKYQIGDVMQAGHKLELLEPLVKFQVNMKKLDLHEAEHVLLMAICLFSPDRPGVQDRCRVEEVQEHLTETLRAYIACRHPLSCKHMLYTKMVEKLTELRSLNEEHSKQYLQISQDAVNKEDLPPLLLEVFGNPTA
Experiment: Competitive ligand binding assay ([3H]-1,25D3 displacement)
Settings: lysate with VDR and human RXRWT; 4 nM [3H]-1,25D3; 18 hours at 4°C; Cheng-Prusoff; mean ± SEM
pKi: −log10 of the molar value.
experimental_readout: pKi

[[record]]
compound = "C[C@H](CCC(=O)O)[C@H]1CC[C@H]2[C@@H]3CC[C@@H]4C[C@H](O)CC[C@]4(C)[C@H]3CC[C@]12C [LCA, 5β-cholanic acid-3α-ol]"
reported = 5.06


----------
Target: Medaka VDRβ (Oryzias latipes, UniProt B2CCA1)
Sequence (B2CCA1 1-425, one chain of several): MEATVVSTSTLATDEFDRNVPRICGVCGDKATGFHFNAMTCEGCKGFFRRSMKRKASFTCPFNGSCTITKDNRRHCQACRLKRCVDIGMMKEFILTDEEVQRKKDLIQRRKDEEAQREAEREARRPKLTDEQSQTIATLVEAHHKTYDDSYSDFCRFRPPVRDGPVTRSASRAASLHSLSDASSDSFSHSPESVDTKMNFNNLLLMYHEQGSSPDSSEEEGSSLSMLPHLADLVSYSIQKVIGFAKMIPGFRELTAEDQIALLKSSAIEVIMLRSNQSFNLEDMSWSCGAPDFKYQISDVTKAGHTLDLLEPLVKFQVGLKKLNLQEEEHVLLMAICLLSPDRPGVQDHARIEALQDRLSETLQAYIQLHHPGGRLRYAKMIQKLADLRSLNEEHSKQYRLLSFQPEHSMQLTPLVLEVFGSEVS
Experiment: Competitive ligand binding assay ([3H]-1,25D3 displacement)
Conditions: lysate with VDR and human RXRWT; 4 nM [3H]-1,25D3; 18 hours at 4°C; Cheng-Prusoff; mean ± SEM
experimental_readout: Ki (µM)

[[record]]
item_smiles = "C[C@H](CCC(=O)O)[C@H]1CC[C@H]2[C@@H]3CC[C@@H]4C[C@H](O)CC[C@]4(C)[C@H]3CC[C@]12C"
experimental_readout = "Ki"
reported = 7.6


----------
Molecular target: Skate VDR (Leucoraja erinacea, UniProt A0A088GDQ7)
Sequence (A0A088GDQ7 1-434, one chain of several): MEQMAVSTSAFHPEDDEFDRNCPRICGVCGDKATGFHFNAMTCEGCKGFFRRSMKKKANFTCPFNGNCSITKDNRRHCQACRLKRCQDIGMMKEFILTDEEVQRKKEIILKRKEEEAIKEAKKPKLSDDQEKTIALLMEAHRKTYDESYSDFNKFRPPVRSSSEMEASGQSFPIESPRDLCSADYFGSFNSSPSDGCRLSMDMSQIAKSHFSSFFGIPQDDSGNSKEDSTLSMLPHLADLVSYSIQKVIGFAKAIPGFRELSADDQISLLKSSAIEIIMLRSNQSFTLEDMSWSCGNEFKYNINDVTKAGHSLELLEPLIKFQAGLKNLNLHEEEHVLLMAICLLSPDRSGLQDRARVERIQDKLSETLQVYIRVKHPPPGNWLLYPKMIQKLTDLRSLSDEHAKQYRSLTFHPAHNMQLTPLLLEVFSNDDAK
Assay: Competitive ligand binding assay ([3H]-1,25D3 displacement)
Details: lysate with VDR and human RXRWT; 4 nM [3H]-1,25D3; 18 hours at 4°C; Cheng-Prusoff; mean ± SEM
experimental_readout: Ki (µM)

[[record]]
item_smiles = "C[C@H](CCC(=O)O)[C@H]1CC[C@H]2[C@@H]3CC[C@@H]4C[C@H](O)CC[C@]4(C)[C@H]3CC[C@]12C"
endpoint_unit = "µM"
reported = 6.7


----------
Target: UniProt:Q1L673
Sequence (Q1L673 whole entry): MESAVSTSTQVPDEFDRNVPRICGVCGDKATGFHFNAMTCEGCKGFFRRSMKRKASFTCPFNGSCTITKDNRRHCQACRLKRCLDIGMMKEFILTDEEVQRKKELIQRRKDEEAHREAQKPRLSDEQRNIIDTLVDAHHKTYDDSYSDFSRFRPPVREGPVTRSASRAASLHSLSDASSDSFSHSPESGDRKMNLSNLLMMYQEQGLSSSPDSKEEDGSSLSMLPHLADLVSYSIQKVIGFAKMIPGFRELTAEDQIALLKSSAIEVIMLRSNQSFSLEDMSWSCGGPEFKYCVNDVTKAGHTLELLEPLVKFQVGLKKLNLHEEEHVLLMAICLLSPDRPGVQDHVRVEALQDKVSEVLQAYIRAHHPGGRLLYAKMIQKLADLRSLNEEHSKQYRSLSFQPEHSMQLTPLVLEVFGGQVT
Experiment: Competitive ligand binding assay ([3H]-1,25D3 displacement)
Conditions: lysate with VDR and human RXRWT; 4 nM [3H]-1,25D3; 18 hours at 4°C; Cheng-Prusoff; mean ± SEM
pKi: −log10 of the molar value.
experimental_readout: pKi

[[record]]
compound = "C[C@H](CCC(=O)O)[C@H]1CC[C@H]2[C@@H]3CC[C@@H]4C[C@H](O)CC[C@]4(C)[C@H]3CC[C@]12C [LCA, 5β-cholanic acid-3α-ol]"
experimental_readout = "pKi"
reported = 5.17

